- System: A498 renal
- assay remarks: NCI-60 one-dose screen, 48 h (100 = growth as untreated, 0 = no growth, -100 = all killed)
- experimental setup: 10 µM unless noted
The panel holds about 83,000 compounds, 20% with a hit somewhere; the sample as a whole holds those more often.
experimental endpoint: growth (%)
Provide the reading as a plain figure in %.

Exam item: Entry CC1=NN(c2ccc(Cl)cc2)CC1(C)N=O (stereo not drawn) has what growth?
Marked response: 101

Exam item: Entry CSCCC(NC(=O)c1ccccc1)C(=O)N/N=C1\S/C(=C/c2ccc(Cl)cc2)C(=O)N1C (stereo not drawn) has what growth?
Marked response: 103

Exam item: Entry "CNC(=O)c1c(NC(=O)c2ccc(C(C)(C)C)cc2)sc2c(CN(C)C)c(O)ccc12" has what growth?
Marked response: 53.1

Exam item: Entry "O=C1Nc2ccc(F)cc2/C1=C\c1nc(-c2ccccc2F)n2ccccc12" has what growth?
Marked response: 111

Exam item: Entry "COc1ccc2c(c1)c(-c1nonc1-c1c[nH]c3ccc(Br)cc13)cn2C" has what growth?
Marked response: 27.4

Exam item: Entry "CCOC(=O)c1c(NC(=O)c2ccc(OC)cc2)sc2c(CN(C)C)c(O)ccc12" has what growth?
Marked response: 68.9

Exam item: Entry "Cc1ccc(O)c(NC(=O)c2ccc(CNc3ccnc(C(F)(F)F)c3)cc2)c1" has what growth?
Marked response: 80.7

Exam item: Entry "COc1ccc(/C=C/C(=O)c2ccc(NC(=O)CSc3nnc(-c4cc(-c5ccccc5)nc5ccccc45)n3-c3ccccc3)cc2)cc1" has what growth?
Marked response: 85.3

Exam item: Entry "COc1cc(-c2nc3ccc(C)cc3[nH]2)ccc1OCC(=O)N=Nc1c(O)[nH]c2ccc(Cl)cc12" has what growth?
Marked response: 82.2

Exam item: Entry "O=C1c2cccnc2C(=O)c2c1c(C(=O)OCCCN1CCCCC1)c1ccccn21" has what growth?
Marked response: 11.1

Exam item: Entry C=C(CO)[C@@H]1CC[C@]2(COC3CCCCO3)CC[C@]3(C)[C@H](CC[C@@H]4[C@@]5(C)C=C(C=O)C(=O)C(C)(C)[C@@H]5CC[C@]43C)[C@@H]12 (stereo partly drawn) has what growth?
Marked response: -97.7

Exam item: Entry "COC(=O)C1=Nc2ccc(F)cc2/C1=C\c1sc(Nc2ccc(O)cc2)nc1O" has what growth?
Marked response: 42.4

Exam item: Entry "COc1ccc2nc3ccccc3c(NCc3ccccc3)c2c1" has what growth?
Marked response: -14.3
